- test-system: T1, ZFP SBS#1096 (synthetic)
- T1 chain: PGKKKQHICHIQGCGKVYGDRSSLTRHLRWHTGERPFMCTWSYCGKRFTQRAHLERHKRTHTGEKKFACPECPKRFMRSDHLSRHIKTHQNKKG
- assay-comment: EMSA
- study-conditions: tags: MBP fusion
reported-property: pKd
Quick note: pKd values are minus log10 of concentrations in mol/L.

Query :: For the binder GGGGGAGCC (dsDNA) DNA 1: GGGGGAGCC DNA 2: GGCTCCCCC , report pKd.
Result :: 10.72
